// provenance: ChEMBL document CHEMBL1201862

For each of the molecules below, state its GI50.
System: OVCAR-3
Test: NCI tumour cell line growth inhibition, 48 h
Calls of active or inactive are those of the source. No stated cut-off is given here; in the data, active = GI50 up to about 1.1 µM and inactive = higher.

**Q:** For OVCAR-3, provide GI50 of Cc1[nH]c2ccccc2c1C1Cc2ccccc2N1C(=O)/C(Cl)=C/c1ccccc1 (stereo unspecified) please.
**A:** > 100 µM (inactive)

**Q:** And what about the molecule `CCc1n[nH]c(=O)[nH]1` ?
**A:** > 100 µM (inactive)

**Q:** And what about the molecule COC(=O)CC1C(C)(C)C(=O)C2CC3=C4CC(=O)OC(c5ccoc5)C4(C)CCC3C1(C)C2=O (stereo unspecified) ?
**A:** > 100 µM (inactive)

**Q:** And what about the molecule CC1(C)CC(=O)C2=C(C1)NC(=S)C(C#N)C2c1ccccc1 (stereo unspecified) ?
**A:** > 100 µM (inactive)

**Q:** And what about the molecule `N[C@@H]1c2c(Br)sc(Br)c2C(=O)[C@H]1Br` ?
**A:** 30.6 µM (inactive)

**Q:** And what about the molecule COC1(OC)c2ccccc2C2(O)c3ccccc3C(=O)C12 (stereo unspecified) ?
**A:** 28.8 µM (inactive)

**Q:** And what about the molecule `CCCCc1ccc(Nc2nc3c(ncn3COCCBr)c(=O)[nH]2)cc1` ?
**A:** > 100 µM (inactive)

**Q:** And what about the molecule `Cn1c2ccccc2c2[nH]cc3nc4ccccc4c-3c21` ?
**A:** 17.1 µM (inactive)

**Q:** And what about the molecule O=C1C[C@@H](Sc2ccccc2)C2(OCCO2)C2ON3CCCC[C@H]3[C@H]12 (stereo partly specified) ?
**A:** 13 µM (inactive)

**Q:** And what about the molecule CC(=O)N1N=C(c2ccccc2Nc2ccccc2C2=NN(C(C)=O)C(c3ccccc3)O2)OC1c1ccccc1 (stereo unspecified) ?
**A:** > 100 µM (inactive)

**Q:** And what about the molecule `O=c1c2ccccc2[nH]c2cc(O)cc(O)c12` ?
**A:** 53.1 µM (inactive)

* * *

For each of the compounds below, state its GI50.
System: 786-0
Test: NCI tumour cell line growth inhibition, 48 h
Activity calls are given as the source filed them. Cut-off read from the data, not from the text of the source: active = GI50 up to about 1.1 µM and inactive = higher.

**Q:** Item under review: `CCOC(=O)CN1C(=O)c2c(c(C)n(-c3ccccc3)c2C)C1=O` . Reported GI50?
**A:** > 100 µM (inactive)

**Q:** And what about the compound `C=CC(C)(C)n1cc(C2=C(O)C(=O)C(c3c(CC=C(C)C)[nH]c4ccccc34)=C(O)C2=O)c2ccccc21` ?
**A:** 2 µM (inactive)

**Q:** And what about the compound CC(NC(=O)C(=O)N/N=C1\C[C@@H](c2ccccc2)Nc2ccccc21)c1ccccc1 (stereo partly drawn) ?
**A:** > 100 µM (inactive)

**Q:** And what about the compound `O=C1N[C@@H](c2c[nH]c3ccc(Br)cc23)C(=O)N[C@H]1c1c[nH]c2ccc(Br)cc12` ?
**A:** 11.5 µM (inactive)

**Q:** And what about the compound `CN(C)CCNC(=O)c1cccc2nc3c(Cl)cccc3nc12` ?
**A:** 7.98 µM (inactive)

**Q:** And what about the compound `Nc1ccc(C(=O)N/C(=C\c2ccc3c(c2)OCO3)c2nc3ccc4c(c3[nH]2)C(=O)c2ccccc2C4=O)cc1` ?
**A:** 21.2 µM (inactive)

**Q:** And what about the compound `CO[C@@H]1C[C@H]2[C@@H]3CC[C@H]([C@H](C)COC(C)=O)[C@@]3(C)CC[C@@H]2[C@@]2(C)CC[C@H]3C[C@]312` ?
**A:** > 100 µM (inactive)

**Q:** And what about the compound `CC(C)(C)OC(=O)NCC(=O)N1CCN(C(=O)CNC(=O)OC(C)(C)C)CC1` ?
**A:** > 100 µM (inactive)
